- targetUnderTest: strychnine-insensitive site present on the NMDA receptor (Rattus norvegicus, UniProt P35439)
- Construct: strychnine-insensitive site present on the NMDA receptor of rat forebrain membranes
- testName: Displacement of 3H-L-689,560 binding, rat forebrain membranes
- particulars: read-out: concentration required to displace 50% of the specific binding (IC50)
pIC50: −log10 of the molar value.
recordedEndpoint: pIC50

stdin: Bench note: what pIC50 did O=c1[nH]n(-c2ccccc2)c(=O)c2c1[nH]c1ccccc12 [Example 1] show?
stdout: > 4.30

Origin of values: patent US5693640A
